TARGET SYSTEM: UniProtKB Q13464
Sequence (Q13464 whole entry): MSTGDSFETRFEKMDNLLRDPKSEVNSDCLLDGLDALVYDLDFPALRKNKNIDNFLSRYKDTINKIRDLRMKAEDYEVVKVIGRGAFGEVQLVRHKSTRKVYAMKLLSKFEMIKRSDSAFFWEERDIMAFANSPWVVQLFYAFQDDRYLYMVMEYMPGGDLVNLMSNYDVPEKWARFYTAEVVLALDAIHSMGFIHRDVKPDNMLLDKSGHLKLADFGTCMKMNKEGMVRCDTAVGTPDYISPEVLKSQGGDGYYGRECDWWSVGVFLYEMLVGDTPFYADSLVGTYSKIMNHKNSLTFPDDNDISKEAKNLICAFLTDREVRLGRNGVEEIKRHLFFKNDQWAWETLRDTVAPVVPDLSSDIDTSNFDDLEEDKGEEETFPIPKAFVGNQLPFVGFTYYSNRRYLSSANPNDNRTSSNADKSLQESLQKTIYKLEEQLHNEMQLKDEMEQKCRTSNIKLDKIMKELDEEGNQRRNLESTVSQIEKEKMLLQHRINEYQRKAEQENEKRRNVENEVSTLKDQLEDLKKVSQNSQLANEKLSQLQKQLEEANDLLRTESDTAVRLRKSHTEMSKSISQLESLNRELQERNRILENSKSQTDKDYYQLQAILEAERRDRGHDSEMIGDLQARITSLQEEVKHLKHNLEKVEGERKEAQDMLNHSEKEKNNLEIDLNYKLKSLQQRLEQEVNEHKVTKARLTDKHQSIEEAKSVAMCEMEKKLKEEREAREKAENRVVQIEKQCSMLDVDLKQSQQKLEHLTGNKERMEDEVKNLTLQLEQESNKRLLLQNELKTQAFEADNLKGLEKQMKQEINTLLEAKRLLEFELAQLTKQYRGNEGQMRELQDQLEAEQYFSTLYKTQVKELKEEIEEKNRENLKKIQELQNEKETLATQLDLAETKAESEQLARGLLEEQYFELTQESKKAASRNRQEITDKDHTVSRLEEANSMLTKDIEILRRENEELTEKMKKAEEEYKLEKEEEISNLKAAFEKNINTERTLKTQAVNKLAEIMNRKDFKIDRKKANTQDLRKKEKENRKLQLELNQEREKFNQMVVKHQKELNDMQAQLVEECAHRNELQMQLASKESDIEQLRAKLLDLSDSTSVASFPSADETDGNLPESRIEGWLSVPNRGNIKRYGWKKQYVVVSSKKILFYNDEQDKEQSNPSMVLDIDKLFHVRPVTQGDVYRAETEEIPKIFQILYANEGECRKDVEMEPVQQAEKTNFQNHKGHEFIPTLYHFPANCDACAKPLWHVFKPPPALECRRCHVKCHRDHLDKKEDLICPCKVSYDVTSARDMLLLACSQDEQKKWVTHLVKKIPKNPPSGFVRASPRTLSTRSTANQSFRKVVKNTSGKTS
ASSAY DETAILS: Z'Lyte assay, ROCK1 inhibition at a single concentration
Format: biochemical
PARTICULARS: read-out: % inhibition (ROCK1) 1 uM
Exercise: state measured inhibition at 1 µM for each of the compounds provided.
One number for each entry, in %.

Use the examples below as a reference point.
ITEM SMILES: O=C(Nc1cccc(Cl)c1)N1CC=C(c2ncnc3[nH]c4c(c23)CCC4)CC1
MEASURE NAME: inhibition at 1 µM
UNIT OF MEASURE: %
TEST RESULT: 10
--
ITEM SMILES: O=C(Nc1cccc(Br)c1)N1CC=C(c2ncnc3[nH]c4c(c23)CCCC4)CC1
MEASURE NAME: inhibition at 1 µM
UNIT OF MEASURE: %
TEST RESULT: 7
--
ITEM SMILES: O=C(Nc1cccc(Br)c1)N1CC=C(c2ncnc3[nH]c4c(c23)CCC4)CC1
MEASURE NAME: inhibition at 1 µM
UNIT OF MEASURE: %
TEST RESULT: 8
--
ITEM SMILES: CN1CCc2[nH]c3ncnc(C4=CCN(C(=O)Nc5cccc(Br)c5)CC4)c3c2C1
MEASURE NAME: inhibition at 1 µM
UNIT OF MEASURE: %
TEST RESULT: 4
--
ITEM SMILES: O=C(Nc1cccc(Cl)c1)N1CC=C(c2ncnc3[nH]c4c(c23)CCCCC4)CC1
MEASURE NAME: inhibition at 1 µM
UNIT OF MEASURE: %
TEST RESULT: 4
--
ITEM SMILES: CN1CCc2[nH]c3ncnc(C4=CCN(C(=O)Nc5cccc(Cl)c5)CC4)c3c2C1
MEASURE NAME: inhibition at 1 µM
UNIT OF MEASURE: %
TEST RESULT: 1
--
ITEM SMILES: O=C(Nc1cccc(Br)c1)N1CC=C(c2ncnc3[nH]c4c(c23)CCCCC4)CC1
MEASURE NAME: inhibition at 1 µM
UNIT OF MEASURE: %
TEST RESULT: 10
--
ITEM SMILES: O=C(Nc1ccccc1)N1CC=C(c2ncnc3[nH]c4c(c23)CCC4)CC1
MEASURE NAME: inhibition at 1 µM
UNIT OF MEASURE: %
TEST RESULT: 0

Inquiry: # lookup: inhibition at 1 µM of `Cc1c[nH]c2ncnc(C3=CCN(C(=O)Nc4cccc(Oc5cccc(OC(=O)N(C)C)c5)c4)CC3)c12`
Reply text: 71

* * *

TARGET SYSTEM: LIMK1 (Homo sapiens (Human), UniProt P53667)
Sequence (P53667 whole entry): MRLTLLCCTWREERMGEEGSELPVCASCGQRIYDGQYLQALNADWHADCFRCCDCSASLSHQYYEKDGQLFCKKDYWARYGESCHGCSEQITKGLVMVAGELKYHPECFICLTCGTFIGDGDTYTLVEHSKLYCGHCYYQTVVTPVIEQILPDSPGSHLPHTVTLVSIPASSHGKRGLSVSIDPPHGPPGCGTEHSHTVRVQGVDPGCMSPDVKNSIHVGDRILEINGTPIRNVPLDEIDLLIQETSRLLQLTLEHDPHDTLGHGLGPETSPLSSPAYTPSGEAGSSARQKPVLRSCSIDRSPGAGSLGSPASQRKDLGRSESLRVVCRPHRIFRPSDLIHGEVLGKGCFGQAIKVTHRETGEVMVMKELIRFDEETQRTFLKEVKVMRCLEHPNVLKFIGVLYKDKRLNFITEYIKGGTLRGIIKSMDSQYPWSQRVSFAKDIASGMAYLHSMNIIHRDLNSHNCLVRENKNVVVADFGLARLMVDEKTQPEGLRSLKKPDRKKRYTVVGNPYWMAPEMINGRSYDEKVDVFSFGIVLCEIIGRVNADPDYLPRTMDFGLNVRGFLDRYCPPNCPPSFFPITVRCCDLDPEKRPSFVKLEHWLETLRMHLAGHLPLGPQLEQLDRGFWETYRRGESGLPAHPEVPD
ASSAY DETAILS: Lanthascreen Eu binding assay (TR-FRET), inhibition of LIMK1
PARTICULARS: Lanthascreen Eu binding assay
MEASURE NAME: log10 of Ki (log10 of the value in nM)
For clarity, the numbers are log10 values of Ki expressed in nM.

I'm hoping you can list log10 of Ki for every compound here, please.
1. Cc1c[nH]c2ncnc(C3=CCN(C(=O)Nc4cccc(OCCN5CCN(C)CC5)c4)CC3)c12
2. Cc1c[nH]c2ncnc(C3=CCN(C(=O)Nc4cccc(Oc5cccc(O)c5)c4)CC3)c12
3. Cc1c[nH]c2ncnc(C3=CCN(C(=O)Nc4cccc(Oc5cccc(OCc6ccccc6)c5)c4)CC3)c12
4. O=C(Nc1cccc(F)c1)N1CC=C(c2ncnc3[nH]c4c(c23)CCCCC4)CC1

Reply text:
1. 2.85
2. 1.11
3. 2.01
4. 1.22

I would be grateful if you could provide log10 of Ki for each of the following entries.
1. O=C(Nc1cccc(N2CCOCC2)c1)N1CC=C(c2ncnc3[nH]c4c(c23)CCC4)CC1
2. COc1ccc(-c2cccc(NC(=O)N3CC=C(c4ncnc5[nH]c6c(c45)CCC6)CC3)c2)cc1

Reply text:
1. 1.43
2. 0.44

Inquiry: Value lookup for log10 of Ki; key = `CN(C)C(=O)Nc1cccc(NC(=O)N2CC=C(c3ncnc4[nH]c5c(c34)CCC5)CC2)c1`
Reply text: 1.67

Just for reference, patent US20230312576A1 is where these values come from.
